The variants listed here are annotated with their protein stability index.
B1: SETD8 (parent)
chain: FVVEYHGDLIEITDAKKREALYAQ

Variants of: B1
Test: protein stability index of a GFP-peptide fusion (GPS, HEK-293T) (PSI 1-6); higher = more stable;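 further: lentivirally expressed fusions sorted by FACS into six bins by GFP to DsRed ratio, PSI derived from sequencing read proportions per bin multiplied by bin number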
Details: c terminus: a fixed tail appended
Answer with a bare number; do not write a unit.

Return reported protein stability index; argument: `Y5S`
2.41

Look at this variant and give its reported protein stability index. `L9K`
2.58

Given the entry `E19Y` , report its measured protein stability index.
1.81

So what's the measured protein stability index for this one? `K16A`
1.7

Could you tell me which protein stability index is on file for `E19M` ?
2.3

Entry `A15E` : reported protein stability index = ?
2.08

Please look up its protein stability index: `Q24Y`
1.32

Entry `Y5I` : reported protein stability index = ?
1.95

Entry `E19D` : reported protein stability index = ?
1.51

I have this variant here, `E19L` , and I need its recorded protein stability index.
3.57

Recorded protein stability index of `V2L` , please.
2.13

Suppose we examine the variant `V3T` ; what protein stability index value has been reported?
2.23
